- Test system: A549
- Test Summary: Cytotoxicity assay, SRB colorimetric assay
- Type: cell-based
- Reported Conditions: Homo sapiens; A549; 48 hours exposure; concentration that produces 50% net cell killing (cytotoxic effect); read-out: LC50
Observed Property: LC50 (50% net cell killing) (µM)

C/C(Cl)=C\C[C@@H](C/C=C\NC(=O)[C@@H](NC(=O)\C=C/C=C\C(C)=C\Cc1ccccc1)C(C)(C)C)O[Si](C)(C)C(C)(C)C    1.06
COc1cc(/C=C(C)/C=C\C=C/C(=O)N[C@H](C(=O)N/C=C\C[C@H](C/C=C(\C)Cl)O[Si](C)(C)C(C)(C)C)C(C)(C)C)ccc1O[Si](C)(C)C(C)(C)C    0.908
C/C(Cl)=C\C[C@@H](C/C=C\NC(=O)[C@@H](NC(=O)\C=C/C=C\C(C)=C\[C@H](C)c1ccccc1)C(C)(C)C)O[Si](C)(C)C(C)(C)C    10.8

---

- Test system: MDA-MB-231
- Test Summary: Cytotoxicity assay, SRB colorimetric assay
- Assay type: cell-based
- Reported Conditions: Homo sapiens; MDA-MB-231; 48 hours exposure; concentration that produces 50% net cell killing (cytotoxic effect); read-out: LC50 (the source's name)
- Source text: The aim of this assay is to evaluate the in vitro cytostatic (ability to delay or arrest tumor cell growth) or cytotoxic (ability to kill tumor cells) activity of the samples being tested. Evaluation of Cytotoxic Activity Using the SBR Colorimetric Assay A colorimetric type of assay, using sulforhodamine B (SRB) reaction has been adapted for a quantitative measurement of cell growth and viability (following the technique described by Skehan P et al. J. Natl. Cancer Inst. 1990, 82, 1107-1112). […]
Observed Property: CC50 (µM)

C/C(Cl)=C\C[C@@H](C/C=C\NC(=O)[C@@H](NC(=O)\C=C/C=C\C(C)=C\[C@H](C)c1ccccc1)C(C)(C)C)O[Si](C)(C)C(C)(C)C [Compound 37]    9.4
COc1cc(/C=C(C)/C=C\C=C/C(=O)N[C@H](C(=O)N/C=C\C[C@H](C/C=C(\C)Cl)O[Si](C)(C)C(C)(C)C)C(C)(C)C)ccc1O[Si](C)(C)C(C)(C)C [Compound 30]    1.26
C/C(Cl)=C\C[C@@H](C/C=C\NC(=O)[C@@H](NC(=O)\C=C/C=C\C(C)=C\Cc1ccccc1)C(C)(C)C)O[Si](C)(C)C(C)(C)C [Compound 32]    1.5
C=CCCOC(=O)[C@@H](NC(=O)\C=C/C=C\C(C)=C\c1ccc(O)c(OC)c1)C(C)(C)C [Compound 36]    19.2
